Test: Selectivity index, ratio of CC50 for human H9 cells to EC50 for HIV1 3B
Assay type: toxicity, cell-based
VALUE_TYPE: Ratio CC50/EC50
One number for each entry.

Each of the following entries comes with a recorded value; kindly state Ratio CC50/EC50 for each.
1. Cc1cc(Br)cc(C)c1Oc1cc(Nc2ccc(C#N)cc2)c(N)cc1[N+](=O)[O-].Cl
2. Cc1cccc(C)c1Oc1ccc([N+](=O)[O-])c(Nc2ccc(C#N)cc2)c1
3. Cc1cn([C@H]2C[C@H](N=[N+]=[N-])[C@@H](CO)O2)c(=O)[nH]c1=O

Result:
1. 3035
2. 22
3. 36019

* * *

Tested on: H9
Assay: Cytotoxicity against human H9 cells after 6 days by XTT assay
Format: cell-based
Settings: h9, 144 h, 144 h
VALUE_TYPE: CC50 (µM)
Numbers only, in µM.

Problem: Using the record for Cc1cc(Br)cc(C)c1Oc1cc(Nc2ccc(C#N)cc2)c(N)cc1[N+](=O)[O-] , report its CC50.
Result: 45.5

* * *

Tested on: Human immunodeficiency virus 1
Assay: Resistant fold, ratio of EC50 for HIV1 with reverse transcriptase A17 (K103N, Y181C) mutant to EC50 for wild type HIV1 3B
Assay type: functional
What Ratio EC50 was measured for each of the following?

Each of the following entries comes with a recorded value; kindly state Ratio EC50 for each.
1. Cc1cc(C#N)cc(C)c1Oc1nc(Nc2ccc(C#N)cc2)nc(N)c1Br
2. Cc1cc(C#N)cc(C)c1Oc1cc(Nc2ccc(C#N)cc2)c(N)cc1N

Result:
9.9
73.3

Each of the following entries comes with a recorded value; kindly state Ratio EC50 for each.
1. Cc1cc(Br)cc(C)c1Oc1cc(Nc2ccc(C#N)cc2)c(N)cc1[N+](=O)[O-]
2. Cc1cc(C#N)cc(C)c1Oc1cc(Nc2ccc(C#N)cc2)c(N)cc1[N+](=O)[O-]

Result:
20.3
18.9

* * *

Tested on: H9
Assay: Cytotoxicity against human H9 cells after 6 days by XTT assay
Type: cell-based
Settings: h9, 144 h
What CC50 was measured for each of the following?
Give bare numbers, in µM.

COc1ccc(Nc2cc(Oc3c(C)cc(Br)cc3C)c([N+](=O)[O-])cc2[N+](=O)[O-])cc1	51.2

Each of the following entries comes with a recorded value; kindly state CC50 for each.
1. Cc1cc(C)c(Oc2cc(Nc3ccc(C#N)cc3)c(N)cc2N)c(C)c1
2. Cc1cccc(C)c1Oc1cc(Nc2ccc(C#N)cc2)c(N)cc1N
3. Cc1cn([C@H]2C[C@H](N=[N+]=[N-])[C@@H](CO)O2)c(=O)[nH]c1=O

Result:
[50, 53.2, 1870]

Problem: What value of CC50 on H9 does Cc1ccc(Nc2cc(Oc3c(C)cc(Br)cc3C)c([N+](=O)[O-])cc2[N+](=O)[O-])cc1 have?
Result: 53

* * *

Tested on: Human immunodeficiency virus 1
Experiment: Antiviral activity against HIV1 3B infected in human H9 cells assessed as inhibition of viral replication after 6 days by p24 antigen based assay
Assay type: functional, organism-based
Settings: h9; read-out: EC50
VALUE_TYPE: pEC50
One number for each entry, as −log10 of the molar value.

Problem: What value of pEC50 on Human immunodeficiency virus 1 does Cc1cc(Br)cc(C)c1Oc1cc(Nc2ccc(C#N)cc2)c(N)cc1[N+](=O)[O-].Cl have?
Result: 7.92

* * *

Test: Selectivity index, ratio of CC50 for human H9 cells to EC50 for HIV1 3B
Format: toxicity, cell-based
VALUE_TYPE: Ratio CC50/EC50
One number for each entry.

Cc1ccc(Nc2cc(Oc3c(C)cc(Br)cc3C)c([N+](=O)[O-])cc2[N+](=O)[O-])cc1	12

Each of the following entries comes with a recorded value; kindly state Ratio CC50/EC50 for each.
1. COc1ccc(Nc2cc(Oc3c(C)cc(Br)cc3C)c([N+](=O)[O-])cc2[N+](=O)[O-])cc1
2. Cc1cc(C#N)cc(C)c1Oc1ccc(N)c(Nc2ccc(C#N)cc2)c1
3. Cc1cc(C#N)cc(C)c1Oc1cc(Nc2ccc(C#N)cc2)c(N)cc1N
4. Cc1cc(Br)cc(C)c1Oc1cc(Nc2ccc(C#N)cc2)c(N)cc1N
5. Cc1cc(C=O)cc(C)c1Oc1ccc([N+](=O)[O-])c(Nc2ccc(C#N)cc2)c1
6. Cc1cc(Br)cc(C)c1Oc1cc(Nc2ccc(C#N)cc2)c(N)cc1[N+](=O)[O-]
7. Cc1cc(C=O)cc(C)c1Oc1cc(Nc2ccc(C#N)cc2)c([N+](=O)[O-])cc1[N+](=O)[O-]

Result:
1: 14; 2: 711; 3: 1698; 4: 238; 5: 6; 6: 2842; 7: 38

Each of the following entries comes with a recorded value; kindly state Ratio CC50/EC50 for each.
1. Cc1cc(C)c(Oc2cc(Nc3ccc(C#N)cc3)c(N)cc2N)c(C)c1
2. Cc1cc(Br)cc(C)c1Oc1ccc(N)c(Nc2ccc(C#N)cc2)c1
3. Cc1cccc(C)c1Oc1cc(Nc2ccc(C#N)cc2)c(N)cc1N

Result:
714
949
16

Problem: Using the record for Cc1cc(C)c(Oc2ccc(N)c(Nc3ccc(C#N)cc3)c2)c(C)c1 , report its Ratio CC50/EC50.
Result: 699

* * *

System: Human immunodeficiency virus 1
Assay: Antiviral activity against wild type HIV1 3B infected in human MT2 cells assessed as inhibition of p24 antigen production after 4 days by ELISA
Format: functional, organism-based
Settings: Human immunodeficiency virus 1, 3B, MT2, 96 h
VALUE_TYPE: pEC50
Numbers only, as −log10 of the molar value.

Each of the following entries comes with a recorded value; kindly state pEC50 for each.
1. Cc1cc(C#N)cc(C)c1Oc1nc(Nc2ccc(C#N)cc2)nc(N)c1Br
2. Cc1cc(C#N)cc(C)c1Oc1cc(Nc2ccc(C#N)cc2)c(N)cc1[N+](=O)[O-]
3. Cc1cc(Br)cc(C)c1Oc1cc(Nc2ccc(C#N)cc2)c(N)cc1[N+](=O)[O-]
4. Cc1ccnc2c1NC(=O)c1cccnc1N2C1CC1
5. Cc1cc(C#N)cc(C)c1Oc1cc(Nc2ccc(C#N)cc2)c(N)cc1N

Result:
[7.24, 8.30, 8.10, 7.28, 7.19]

* * *

What Ratio CC50/EC50 was measured for each of the following?
Assay: Selectivity index, ratio of CC50 for human H9 cells to EC50 for HIV1 3B
Format: toxicity, cell-based
One number for each entry.

Cc1cc(C#N)cc(C)c1Oc1cc(Nc2ccc(C#N)cc2)c(N)cc1[N+](=O)[O-]	20887

Next up:
Problem: Using the record for Cc1cc(C)c(Oc2cc(Nc3ccc(C#N)cc3)c(N)cc2[N+](=O)[O-])c(C)c1 , report its Ratio CC50/EC50.
Result: 520

* * *

Experiment: Selectivity index, ratio of CC50 for human H9 cells to EC50 for HIV1 3B
Format: toxicity, cell-based
VALUE_TYPE: Ratio CC50/EC50

Example compounds with recorded Ratio CC50/EC50:
Cc1cc(Br)cc(C)c1Oc1cc(Nc2ccc([N+](=O)[O-])cc2)c([N+](=O)[O-])cc1[N+](=O)[O-]	> 1
COc1ccc(Nc2cc(Oc3c(C)cccc3C)c([N+](=O)[O-])cc2[N+](=O)[O-])cc1	> 16
Cc1cc(C)c(Oc2ccc([N+](=O)[O-])c(Nc3ccc(C#N)cc3)c2)c(C)c1	> 1000

Each of the following entries comes with a recorded value; kindly state Ratio CC50/EC50 for each.
1. Cc1cc(C)c(Oc2cc(Nc3ccc(C#N)cc3)c([N+](=O)[O-])cc2[N+](=O)[O-])c(C)c1
2. Cc1cc(C#N)cc(C)c1Oc1cc(Nc2ccc(C#N)cc2)c([N+](=O)[O-])cc1[N+](=O)[O-]
3. Cc1cc(Br)cc(C)c1Oc1ccc([N+](=O)[O-])c(Nc2ccc(C#N)cc2)c1
4. Cc1cc(Br)cc(C)c1Oc1cc(Nc2ccc(C#N)cc2)c([N+](=O)[O-])cc1[N+](=O)[O-]

Result:
1. > 214
2. > 14
3. > 180
4. > 301

* * *

Assay: Selectivity index, ratio of CC50 for human H9 cells to EC50 for HIV1 3B
Format: toxicity, cell-based
VALUE_TYPE: Ratio CC50/EC50

Example compounds with recorded Ratio CC50/EC50:
Cc1cc(C#N)cc(C)c1Oc1ccc([N+](=O)[O-])c(Nc2ccc(C#N)cc2)c1	> 313
Cc1cccc(C)c1Oc1cc(Nc2ccc(C#N)cc2)c([N+](=O)[O-])cc1[N+](=O)[O-]	> 113

Next up:
Problem: Using the record for COc1ccc(Nc2cc(Oc3c(C)cc(C)cc3C)c([N+](=O)[O-])cc2[N+](=O)[O-])cc1 , report its Ratio CC50/EC50.
Result: > 20
